Each recorded value in this set is attributed to PubChem BioAssay AID652104.

- Experimental Details: qHTS of TDP-43 Inhibitors; note: nearly all actives have a fitted effect of over 50% in size
- Measurement Setup: TDP-43 expressing yeast growth rescue, BacTiter-Glo, 24 h; series mostly up to 46.1 µM
The whole screen tested about 410,000 compounds, of which about 7,200 (1.8%) were called active. About 7% were inconclusive and are not listed. Calls come from the whole dose curve; as a rule, active = well fitted activation curve with a large enough effect; inconclusive = small, poorly fitted or top-dose-only effect, or another doubt; inactive = no such curve, though single readings can be large or run the other way. The sample holds actives, similar compounds and a random draw of the others, so the mix is not that of the screen.
Write down one outcome, taken from active, inactive

CC(Sc1oc(-c2ccco2)nc1S(=O)(=O)c1ccc(Br)cc1)c1ccccc1 (stereo not given)    inactive
O=[N+]([O-])c1ccc2oc(-c3cccc(O)c3)nc2c1    active
CCn1c2ccccc2c2cc(CN3CCN(Cc4cccc(Cl)c4)CC3)ccc21    inactive
CCCCCn1c(=O)[nH]c2cc(C(=O)Nc3cc(C)cc(C)c3)ccc2c1=O    inactive

Okay, now this compound:
Tell me the assay call for O=C(Nc1cc(-c2nc3ccccc3o2)ccc1Cl)c1cc([N+](=O)[O-])ccc1N1CCOCC1 please.
inactive

====

- Experimental Details: qHTS of TDP-43 Inhibitors; note: nearly all actives have a fitted effect of over 50% in size
- Measurement Setup: TDP-43 expressing yeast growth rescue, BacTiter-Glo, 24 h; series mostly up to 46.1 µM
About 7,200 (1.8%) of roughly 410,000 compounds were called active. Not shown: some 7% with an inconclusive outcome. Calls follow the shape of the dose curve; as a rule, active = well fitted activation curve with a large enough effect; inconclusive = small, poorly fitted or top-dose-only effect, or another doubt; inactive = no such curve, though single readings can be large or run the other way. The sample holds actives, similar compounds and a random draw of the others, so the mix is not that of the screen.
Write down one outcome, taken from yes for active, no for inactive

Example entries begin here.
CCOC(=O)c1cc(-c2ccccc2)n(CCC(=O)Nc2ccccc2CC)c1C    no
O=C(Nc1ccc2c(c1)OCCO2)C1CCCC1    no
CN(O)C(=S)c1ccccc1    yes

Tell me the assay call for Cc1cc(NC(=O)CC(C)C)cc(-c2nc3ncccc3o2)c1O please.
no

Tell me the assay call for COc1cc(NC(=O)Cn2nc(-c3ccc(C)c(C)c3)ccc2=O)cc(OC)c1 please.
no

Tell me the assay call for CCOC(=O)c1cc(-c2ccccc2)n(-c2cccc(C(=O)Nc3cc(OC)cc(OC)c3)c2)c1C please.
no

====

- Experimental Details: qHTS of TDP-43 Inhibitors; note: nearly all actives have a fitted effect of over 50% in size
- Measurement Setup: TDP-43 expressing yeast growth rescue, BacTiter-Glo, 24 h; series mostly up to 46.1 µM
Out of some 410,000 compounds screened, about 7,200 (1.8%) were called active. About 7% were inconclusive and are not listed. Calls follow the shape of the dose curve; as a rule, active = well fitted activation curve with a large enough effect; inconclusive = small, poorly fitted or top-dose-only effect, or another doubt; inactive = no such curve, though single readings can be large or run the other way. This is one part of a sample in which actives are shown more often than they occur.
Write down one outcome, taken from active, inactive

Example entries begin here.
Cc1nc2nc(SCC(=O)N(Cc3ccccc3)C(C)C)nn2c(C)c1Cc1ccccc1Cl    inactive
CCOC(=O)c1ccc(NC(=O)Cn2c(=O)cc(C)c3c(C)nn(-c4cccc(F)c4)c32)cc1    inactive
COc1ccc(NC(=O)CN(C)C(=O)c2ccc(NC3CC3)c([N+](=O)[O-])c2)cc1    inactive
COc1ccc(Cl)cc1-c1cc(C(=O)Nc2cc(OC)c(OC)c(OC)c2)[nH]n1    inactive
COc1cc(OC)cc(C(=O)Nc2cc3nn(-c4ccccc4)nc3cc2Cl)c1    inactive
CCN(CC)C(=O)Oc1ccc(Br)cc1C(=O)Nc1ccc(F)c(Cl)c1    inactive

Okay, now this molecule:
Tell me the assay call for CCNc1nc(-c2cc3ccccc3o2)cs1 please.
active

====

- Experimental Details: qHTS of TDP-43 Inhibitors; note: nearly all actives have a fitted effect of over 50% in size
- Measurement Setup: TDP-43 expressing yeast growth rescue, BacTiter-Glo, 24 h; series mostly up to 46.1 µM
Hit rate of the full screen: of about 410,000 compounds, about 7,200 (1.8%) were called active. About 7% were inconclusive and are not listed. Calls come from the whole dose curve; as a rule, active = well fitted activation curve with a large enough effect; inconclusive = small, poorly fitted or top-dose-only effect, or another doubt; inactive = no such curve, though single readings can be large or run the other way. What follows is part of a selection rich in actives, with near analogues and random picks from the rest.
Write down one outcome, taken from 1.0 (active), 0.0 (inactive)

Example entries begin here.
COC(=O)c1c(NC(=O)c2cc(=O)c3c(C)cc(C)cc3o2)sc2c1CCCC2    0.0
CCOc1cccc2c1N[C@@H](c1ccc(C(=O)O)cc1)[C@H]1CC=C[C@@H]21    0.0
O=C(CNC(=O)OCc1ccccc1)Oc1cc2oc(=O)cc(-c3ccccc3)c2cc1Cl    1.0
Cc1c(NC(=O)Cc2ccccc2)cccc1-c1nc2cccnc2s1    0.0

Okay, now this compound:
Tell me the assay call for CCOC(=O)c1sc(NC(=O)/C=C/c2ccc(C(C)C)cc2)c(C(=O)OCC)c1C please.
0.0
